Test system: CP329
Assay: qHTS profiling for inhibitors of Plasmodium falciparum proliferation (AID 504749); further: nearly all actives have a fitted effect of over 60% in size; further: potency means the concentration at half of the fitted maximal effect
Details: P. falciparum in erythrocytes, SYBR Green DNA, 72 h; series mostly up to 28.7 µM
Inconclusive results are not listed. The source made the active and inactive calls. The call rests on the fitted dose curve; in most records, active means well fitted inhibition curve with a large enough effect; inconclusive means small, poorly fitted or top-dose-only effect; inactive means flat fitted curve, though single readings scatter. Bridge positions count the residues as written; N and C are the ends. Square brackets hold non-standard residues; d marks the D form. Peptide text beside a SMILES is read from it. * marks the point of attachment. Octanoyl(6-Me) = CCC(C)CCCCC(=O)*; Dab = NCC[CH](N)C(=O)O
endpoint: Potency

C1OCOCO1 : inactive
CCC(C)CCCCC(=O)NC(CCN)C(=O)NC(C(=O)NC(CCN)C(=O)NC1CCNC(=O)C(C(C)O)NC(=O)C(CCN)NC(=O)C(CCN)NC(=O)C(CC(C)C)NC(=O)C(Cc2ccccc2)NC(=O)C(CCN)NC1=O)C(C)O (stereo not drawn) ({Octanoyl(6-Me)}-[Dab]T[Dab][Dab][Dab]FL[Dab][Dab]T; lactam 4-C; configuration not given here) : inactive
CCC(C)n1ncn(-c2ccc(N3CCN(c4ccc(OCC5COC(Cn6cncn6)(c6ccc(Cl)cc6Cl)O5)cc4)CC3)cc2)c1=O (stereo not drawn) : inactive
CCN1/C(=C/C=C/C=C/c2sc3ccccc3[n+]2CC)Sc2ccccc21 : 6.75 µM (active)
O=NCc1ccc([N+](=O)[O-])o1 : inactive
CO/N=C(/C(=O)N[C@@H]1C(=O)N2C(C(=O)O)=CCS[C@H]12)c1csc(N)n1 : inactive
CC(C)CN(C[C@@H](O)[C@H](Cc1ccccc1)NC(=O)O[C@H]1CCOC1)S(=O)(=O)c1ccc(N)cc1 : inactive
C/C=C\c1ccc(OC)cc1 : inactive
CC1(C)S[C@@H]2[C@H](NC(=O)COc3ccccc3)C(=O)N2[C@H]1C(=O)O : inactive
CCC(=O)O[C@@H](OP(=O)(CCCCc1ccccc1)CC(=O)N1C[C@H](C2CCCCC2)C[C@H]1C(=O)O)C(C)C (stereo partly drawn) : inactive
CC(=O)O[C@@]12CO[C@@H]1C[C@H](O)[C@@]1(C)C(=O)[C@H](O)C3=C(C)[C@@H](OC(=O)C(O)[C@@H](NC(=O)OC(C)(C)C)c4ccccc4)C[C@@](O)([C@@H](OC(=O)c4ccccc4)[C@H]21)C3(C)C (stereo partly drawn) : 0.0338 µM (active)
CN1CC[C@H](CN2c3ccccc3Sc3ccccc32)C1 : inactive
NC1=NC(S)C2N=CN=C2N1 (stereo not drawn) : inactive

====

Biological target: Glutathione peroxidase 1 (Homo sapiens) (UniProt P07203)
Sequence (P07203 whole entry, looked up): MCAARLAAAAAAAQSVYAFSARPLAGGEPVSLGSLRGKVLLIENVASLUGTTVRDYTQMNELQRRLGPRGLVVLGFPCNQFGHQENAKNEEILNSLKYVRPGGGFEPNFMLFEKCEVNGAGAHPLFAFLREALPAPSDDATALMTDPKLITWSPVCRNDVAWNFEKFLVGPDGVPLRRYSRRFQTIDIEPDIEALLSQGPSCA
Assay: Primary qHTS Assay for Inhibitors of Recombinant Selenoprotein Glutathione Peroxidase 1 (GPX1) (AID 1845191); further: nearly all actives have a fitted effect of over 65% in size
Details: recombinant GPX1, GR-coupled NADPH fluorescence, 15 min; series mostly up to 48.8 µM
Method: Assay Provider: Elias S.J. Arner MD PhD. Department of Medical Biochemistry and Biophysics Karolinska Institutet, Solna, Stockholm, Sweden […] 5; Detection; Fluorescence; ViewLux microplate reader, excitation 340 nm and emission 450 nm. […] 7; Detection; Fluorescence; ViewLux microplate reader, excitation 340 nm and emission 450 nm. […] 5. Initial fluorescence readout (t=0) at 340/450 nm was measured using a ViewLux multimodal detector (PerkinElmer, Waltham, MA). […]
Records with an inconclusive call do not appear. Calls of active or inactive are those of the source. Calls follow the shape of the dose curve; as a rule, active = well fitted inhibition curve with a large enough effect; inconclusive = small, poorly fitted or top-dose-only effect; inactive = flat fitted curve, though single readings scatter.
Outcome codes: yes (1) = active, no (0) = inactive

CCCCC[C@H](O)/C=C/[C@@H]1[C@@H](C/C=C/CCCC(=O)O)[C@@H](O)C[C@H]1O : no (0)
CCc1c(C(=O)Nc2cc(S(=O)(=O)N(CC)CC)ccc2O)[nH]c(C)c1C(C)=O : no (0)
CCCCC(=O)O[C@]1(C(=O)COC(C)=O)CC[C@H]2[C@@H]3CCC4=CC(=O)C=C[C@]4(C)[C@H]3[C@@H](O)C[C@@]21C : no (0)
O=C(O)C(O)C(O)C(=O)O (stereo unspecified) : no (0)
CN1C2CC[C@@H]1CC(OC(=O)[C@H](CO)c1ccccc1)C2 (stereo partly specified) : no (0)
Cc1cc(-c2nc3ncccc3o2)ccc1NC(=O)COc1ccc(C(C)(C)C)cc1 : no (0)
C=C(C)CNc1ccc(C(C)C(=O)O)cc1 (stereo unspecified) : no (0)
COCC1=C(C(=O)OC(C)OC(=O)OC(C)C)N2C(=O)[C@@H](NC(=O)/C(=N/OC)c3csc(N)n3)[C@H]2SC1 (stereo partly specified) : yes (1)
CCCC(=O)Nc1ncnc2c1ncn2C1O[C@@H]2COP(=O)(O)O[C@H]2[C@H]1OC(=O)CCC (stereo partly specified) : no (0)
CC(C)(C)NC(=O)N[C@H](C(=O)N1C[C@H]2[C@@H]([C@H]1C(=O)NC(CC1CCC1)C(=O)C(N)=O)C2(C)C)C(C)(C)C (stereo partly specified) : no (0)
COc1ccc(-c2nn3c(-c4ccco4)nnc3s2)cc1OC : no (0)
CC(C)=CCC[C@](C)(OC1OC(COC2OCC(O)C(O)C2O)C(O)C(O)C1O)[C@H]1CC[C@]2(C)[C@@H]1[C@H](O)C[C@@H]1[C@@]3(C)CC[C@H](OC4OC(CO)C(O)C(O)C4OC4OC(CO)C(O)C(O)C4O)C(C)(C)[C@@H]3CC[C@]12C (stereo partly specified) : no (0)
CC1=CC(O)CC(C)(C)C1/C=C/C(C)=C/C=C/C(C)=C/C=C/C=C(C)/C=C/C=C(C)/C=C/C1=C(C)CC(O)CC1(C)C (stereo unspecified) : no (0)
CC[C@H]1OC(=O)C[C@@H](OC(C)=O)[C@H](C)[C@@H](O[C@@H]2O[C@H](C)[C@@H](O[C@H]3C[C@@](C)(O)[C@@H](OC(=O)CC(C)C)[C@H](C)O3)[C@H](N(C)C)[C@H]2O)[C@@H](CC=O)C[C@@H](C)C(=O)/C=C/C(C)=C/[C@@H]1CO[C@@H]1O[C@H](C)[C@@H](O)[C@@H](OC)[C@H]1OC : no (0)
COc1cc([C@@H]2c3cc4c(cc3[C@@H](O[C@@H]3O[C@@H]5CO[C@@H](C)O[C@H]5[C@H](O)[C@H]3O)[C@H]3COC(=O)[C@H]23)OCO4)cc(OC)c1OP(=O)(O)O : no (0)
Cc1cc(CC(C)CC(C)(C)C)n(O)c(=O)c1 (stereo unspecified) : no (0)

====

Tested on: TAB165
Assay: qHTS profiling for inhibitors of Plasmodium falciparum proliferation (AID 504749); further: nearly all actives have a fitted effect of over 60% in size
Conditions: P. falciparum in erythrocytes, SYBR Green DNA, 72 h; series mostly up to 28.7 µM
Results filed as inconclusive are left out. Active and inactive are the calls of the source. Calls come from the whole dose curve; as a rule, active = well fitted inhibition curve with a large enough effect; inconclusive = small, poorly fitted or top-dose-only effect; inactive = flat fitted curve, though single readings scatter.
Outcome codes: active, inactive

Cc1cc(CC(C)CC(C)(C)C)n(O)c(=O)c1 (centres undefined) : active
CC(=O)O[C@@]12CO[C@@H]1C[C@H](O)[C@@]1(C)C(=O)[C@H](O)C3=C(C)[C@@H](OC(=O)C(O)[C@@H](NC(=O)OC(C)(C)C)c4ccccc4)C[C@@](O)([C@@H](OC(=O)c4ccccc4)[C@H]21)C3(C)C (some centres undefined) : active
NC1=NC(S)C2N=CN=C2N1 (centres undefined) : inactive
CC(C)CN(C[C@@H](O)[C@H](Cc1ccccc1)NC(=O)O[C@H]1CCOC1)S(=O)(=O)c1ccc(N)cc1 : inactive

====

Target: Rap guanine nucleotide exchange factor 3 (Homo sapiens) (UniProt O95398)
Sequence (O95398 whole entry, looked up): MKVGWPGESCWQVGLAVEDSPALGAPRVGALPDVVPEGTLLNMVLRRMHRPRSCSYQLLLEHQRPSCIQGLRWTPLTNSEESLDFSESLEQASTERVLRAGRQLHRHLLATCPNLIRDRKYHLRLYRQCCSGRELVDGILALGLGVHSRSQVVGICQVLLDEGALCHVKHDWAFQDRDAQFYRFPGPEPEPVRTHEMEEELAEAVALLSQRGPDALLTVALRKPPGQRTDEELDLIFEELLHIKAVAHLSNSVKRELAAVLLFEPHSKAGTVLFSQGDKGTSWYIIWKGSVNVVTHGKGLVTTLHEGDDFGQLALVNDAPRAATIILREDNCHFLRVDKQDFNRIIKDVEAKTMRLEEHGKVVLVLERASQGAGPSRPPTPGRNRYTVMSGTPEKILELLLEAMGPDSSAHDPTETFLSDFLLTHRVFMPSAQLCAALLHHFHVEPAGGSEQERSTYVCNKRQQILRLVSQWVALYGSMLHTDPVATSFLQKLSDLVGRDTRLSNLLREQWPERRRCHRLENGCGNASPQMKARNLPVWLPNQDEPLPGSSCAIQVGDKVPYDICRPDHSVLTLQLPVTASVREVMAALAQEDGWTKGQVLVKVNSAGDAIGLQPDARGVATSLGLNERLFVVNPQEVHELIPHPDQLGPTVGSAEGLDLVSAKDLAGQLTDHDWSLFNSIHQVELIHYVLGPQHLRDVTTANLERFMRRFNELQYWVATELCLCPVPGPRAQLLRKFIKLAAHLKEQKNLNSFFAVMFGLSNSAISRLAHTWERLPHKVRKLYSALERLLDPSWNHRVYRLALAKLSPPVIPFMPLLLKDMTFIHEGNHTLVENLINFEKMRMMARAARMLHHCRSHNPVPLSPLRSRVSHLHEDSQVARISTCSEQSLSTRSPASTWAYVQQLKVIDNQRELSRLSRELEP
Assay: Confirmatory qHTS for agonist of cAMP-regulated guanine nucleotide exchange factor 3 (EPAC1) (AID 1645881);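 further: EPAC1 catalysed release of BODIPY-GDP from Rap1B seen as fluorescence loss; 100% = effect of cAMP agonist control; nearly all actives have a fitted effect of over 75% in size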
Settings: EPAC1 Rap1B BODIPY-GDP exchange fluorescence; series mostly up to 154 µM
Results filed as inconclusive are left out. Active and inactive are the calls of the source. The call rests on the fitted dose curve; in most records, active means well fitted activation curve with a large enough effect; inconclusive means small, poorly fitted or top-dose-only effect; inactive means no such curve, though single readings can be large or run the other way.
endpoint: outcome

Cc1ccc(C(=O)NNC(=O)c2ccccc2O)cc1S(=O)(=O)N1CCCCC1 : inactive
c1ccc(-c2cn3nc(-c4ccccc4)c(-c4ccccc4)nc3n2)cc1 : inactive
CCCc1nc2ccc(C(=O)OC)cn2c1Cc1ccccc1C(F)(F)F : inactive
COc1ccc(OCCC(=O)OCC(=O)Nc2ccc(S(=O)(=O)N3CCOCC3)cc2)cc1 : inactive
O=c1c(O)c(-c2ccccc2)oc2ccc3occc3c12 : inactive
COCc1nc2ccccc2n1Cc1ccc(C(C)(C)C)cc1 : inactive
CCN1/C(=C\c2ccc3ccccc3[n+]2CC)Sc2cc(C)ccc21 : inactive
COc1ccc(C(=O)c2ccc(Cl)cc2)c(OC)c1OC : inactive
Cc1cc(C)nc(SCC(=O)c2ccc(Cl)cc2)n1 : inactive
C/C(=N\Nc1ccc([N+](=O)[O-])cc1)c1ccc(O)cc1 : inactive
Cc1cc(C)c2sc(N(CCCN(C)C)C(=O)c3ccc(S(=O)(=O)N(C)C4CCCCC4)cc3)nc2c1 : inactive

====

Target: Rap guanine nucleotide exchange factor 4 (Homo sapiens)
Assay: Confirmatory qHTS for agonist of cAMP-regulated guanine nucleotide exchange factor 4 (EPAC2) (AID 1645884);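 further: nucleotide exchange releases bodipy-GDP from Rap1 and this lowers its fluorescence; nearly all actives have a fitted effect of over 65% in size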
Conditions: EPAC2 GEF activity, Rap1B-BODIPY-GDP fluorescence; series mostly up to 154 µM
Records with an inconclusive call do not appear. The source made the active and inactive calls. Calls come from the whole dose curve; as a rule, active = well fitted activation curve with a large enough effect; inconclusive = small, poorly fitted or top-dose-only effect; inactive = no such curve, though single readings can be large or run the other way.
endpoint: activation

O=C(COc1ccccc1Br)Nc1ccccc1C(F)(F)F : inactive
Cc1[nH][nH]c(=O)c1C(c1c(C)[nH][nH]c1=O)c1cn(Cc2cccc3ccccc23)c2ccccc12 : inactive
